- Assay summary: chemical genetic growth profiling, strain panel (AID 1159580);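 note: tested at 20 µM; growth read once vehicle control cultures reached saturation at 30 °C; lower values mean less growth of the strain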
- Experimental setup: S. cerevisiae deletion strains, growth OD, locus YKL190W, strain CNB1, stronger effect = lower value
The whole screen tested about 5,500 compounds, of which about 2,000 (36%) were called active. Not shown: some 18% with an inconclusive outcome. This is one part of the list.
// assign MET if normalized growth falls strictly below 1, else NOT MET (ties count as NOT MET)

Compound	Group label
COc1cc(/C=C(\C#N)C(N)=S)cc(OC)c1OC	MET
COc1ccc(Cl)cc1C(=O)NCCc1ccc(S(=O)(=O)NC(=O)NC2CCCCC2)cc1	MET
C[C@]12CCC3c4ccc(O)cc4CCC3C1CC[C@@H]2O (stereo partly drawn)	NOT MET
O=C(O[C@@H]1Cc2c(O)cc(O)cc2O[C@@H]1c1cc(O)c(=O)c2c(O)c(O)cc([C@H]3Oc4cc(O)cc(O)c4C[C@H]3OC(=O)c3cc(O)c(O)c(O)c3)c2c1)c1cc(O)c(O)c(O)c1	MET

For this compound, is normalized growth lower than 1? CCCCCCCCCCCCCCCCCC(=O)OC(CC(=O)O)C[N+](C)(C)C (stereo not drawn)
MET

For this compound, is normalized growth lower than 1? Cc1onc(-c2ccc(Cl)cc2)c1-c1ccnn1C(=O)NC(C)C
MET

For this compound, is normalized growth lower than 1? CC12CCC3c4ccc(OCc5ccccc5)cc4CCC3C1C[C@@H](O)[C@@H]2O (stereo partly drawn)
MET

For this compound, is normalized growth lower than 1? CC(C1OC(C)(C)C(O)C1O)[C@@H]1CC[C@]2(C)C3=CCC4C(C)(C)C(=O)CC[C@]4(C)C3CC[C@@]12C (stereo partly drawn)
NOT MET
